Hey, just so you know, these numbers are from the supplement of paper PMC8371130.

# System: HL-1
# RUN DESCRIPTION: relative cell viability (CellTiter-Glo) vs DMSO control (% of DMSO control); higher = more viable cells
# CONDITION LABEL: oxygen condition: hypoxia 48 h (1% O2) + reoxygenation 24 h; 5000 nM
Where a name gives a salt, the structure may show the parent alone.
MEASURED METRIC: relative cell viability
Could you keep your reply to the number by itself?

Form field, relative cell viability with HL-1, item C[C@H]1c2cccc(O)c2C(=O)C2=C(O)[C@]3(O)C(=O)C(C(N)=O)=C(O)[C@@H](N(C)C)[C@@H]3[C@@H](O)[C@@H]21 [Doxycycline HCl] : 107

----------
# Tested on: HL-1
# RUN DESCRIPTION: relative cell viability (CellTiter-Glo) vs DMSO control (% of DMSO control); higher = more viable cells
# CONDITION LABEL: oxygen condition: normoxia 72 h; 40 nM
Structures can show the parent of a compound that is named as a salt.
Let's look at some molecules and their measured relative cell viability.
Reply: number alone, nothing else.

MOLECULE	relative cell viability
CCN(CC)C(=O)/C(C#N)=C/c1cc(O)c(O)c([N+](=O)[O-])c1	100
CCCNC(C)C(=O)Nc1c(C)csc1C(=O)OC (centres undefined) [Articaine HCl]	103
COc1ccc2[nH]c([S@@+]([O-])Cc3ncc(C)c(OC)c3C)nc2c1	104
Cc1onc(-c2ccccc2)c1C(=O)N[C@@H]1C(=O)N2[C@@H]1SC(C)(C)[C@@H]2C(=O)O [Oxacillin sodium monohydrate]	103
NC(=O)c1ncn([C@@H]2O[C@H](CO)[C@@H](O)[C@H]2O)n1	100
CCOC(=O)C1=C(C)NC(C)=C(C(=O)OCC)C1c1ccccc1/C=C/C(=O)OC(C)(C)C	106

So, Clc1ccc2nsnc2c1NC1=NCCN1 [Tizanidine HCl] ? Its relative cell viability was 105

Entry under test: NC(=O)N1c2ccccc2CC(=O)c2ccccc21 [Oxcarbazepine] . Its relative cell viability was 108

The molecule listed as `CN(C)/N=N/c1[nH]cnc1C(N)=O` has a reported relative cell viability of 105

----------
# System: HL-1
# RUN DESCRIPTION: relative cell viability (CellTiter-Glo) vs DMSO control (% of DMSO control); higher = more viable cells
# CONDITION LABEL: oxygen condition: normoxia 72 h; 1000 nM
Structures can show the parent of a compound that is named as a salt.
Items are presented alongside their recorded relative cell viability.
The answer should be a number; do not append a unit.

COMPOUND	relative cell viability
Nc1[nH]cnc2ncnc1-2 [Adenine sulfate]	110
CN(C)CC/C=C1/c2ccccc2COc2ccc(CC(=O)O)cc21 [Olopatadine hydrochloride]	97.1
O=C(O)C[C@H](O)C[C@H](O)/C=C/c1c(C2CC2)nc2ccccc2c1-c1ccc(F)cc1	88.9
CNC(=O)c1cc(Oc2ccc(NC(=O)Nc3ccc(Cl)c(C(F)(F)F)c3)c(F)c2)ccn1	114
CCN(CC)CCOC(=O)C1(C2CCCCC2)CCCCC1 [Dicyclomine HCl]	97.2

Value of measured relative cell viability for the entry CN1CCN2c3ccccc3Cc3ccccc3C2C1 (centres undefined) [Mianserin hydrochloride] : 98.1

Entry `COc1cc(C(C)=O)ccc1OCCCN1CCC(c2noc3cc(F)ccc23)CC1` — recorded relative cell viability = 119

The measured relative cell viability associated with `CNC[C@@H](O)c1ccc(O)c(O)c1` reads 95.7

relative cell viability reading for CN1C[C@@H]2C[C@H]1CN2c1cc2c(cc1F)c(=O)c(C(=O)O)cn2C1CC1 [Danofloxacin Mesylate] : 103

relative cell viability measured on CN(C)CCN(Cc1ccccc1)c1ccccn1 [Tripelennamine HCl] = 94.1

For this compound ( C#CCC(Cc1cnc2nc(N)nc(N)c2n1)c1ccc(C(=O)N[C@@H](CCC(=O)O)C(=O)O)cc1 (some centres undefined) [Pralatrexate] ), measured relative cell viability is 46.2

Entry `Oc1ncnc2[nH]ncc12` — recorded relative cell viability = 106

Entry `CCCc1cc(=O)[nH]c(=S)[nH]1` ; relative cell viability = 107

The compound identified as Cc1nc2n(c(=O)c1CCN1CCC(c3noc4cc(F)ccc34)CC1)CCCC2O (centres undefined) registered its relative cell viability at 105

Record summary for COCCCC/C(=N\OCCN)c1ccc(C(F)(F)F)cc1 [Fluvoxamine maleate] : reported relative cell viability = 106

Per the record, COc1ccccc1OCCNCC(O)COc1cccc2[nH]c3ccccc3c12 (centres undefined) has relative cell viability of 107

Entry `CN(C)CCCN1c2ccccc2Sc2ccc(Cl)cc21` — recorded relative cell viability = 106

Memo: COc1cc(C(=O)NC2CCCNC2)cc(OC)c1OC (centres undefined) [Troxipide] , reported relative cell viability: 116

Summary for this compound, COc1ccc(CN2CCN(C(c3ccc(F)cc3)c3ccc(F)cc3)CC2)c(OC)c1OC [Lomerizine HCl] : relative cell viability is 106

Documented relative cell viability of CC1CNc2c(cccc2S(=O)(=O)N[C@@H](CCCNC(=N)N)C(=O)N2CC[C@@H](C)C[C@@H]2C(=O)O)C1 (some centres undefined) : 97.6

----------
# Test system: HL-1
# RUN DESCRIPTION: relative cell viability (CellTiter-Glo) vs DMSO control (% of DMSO control); higher = more viable cells
# CONDITION LABEL: oxygen condition: hypoxia 48 h (1% O2) + reoxygenation 24 h; 40 nM
Where a name gives a salt, the structure may show the parent alone.
MEASURED METRIC: relative cell viability
Could you keep your reply to the number by itself?

COMPOUND	ASSAY SYSTEM	relative cell viability
CCOC(=O)c1ncn2c1CN(C)C(=O)c1cc(F)ccc1-2	HL-1	104
CN(C)CCc1c[nH]c2ccc(C[C@H]3COC(=O)N3)cc12	HL-1	105
NCCS [Cysteamine HCl]	HL-1	101
CC[C@H]1OC(=O)C[C@@H](O)[C@H](C)[C@@H](O[C@@H]2O[C@H](C)[C@@H](O[C@H]3C[C@@](C)(O)[C@@H](O)[C@H](C)O3)[C@H](N(C)C)[C@H]2O)[C@@H](CC=O)C[C@@H](C)C(=O)/C=C/C(C)=C/[C@@H]1CO[C@@H]1O[C@H](C)[C@@H](O)[C@@H](OC)[C@H]1OC [Tylosin tartrate]	HL-1	102
O=C(O)c1ccc(-n2nc(-c3ccccc3O)nc2-c2ccccc2O)cc1	HL-1	93.2

Now let's try a different one.
get_value(item= `C[C@]12CCC3=C4CCC(=O)C=C4CC[C@H]3[C@@H]1CC[C@@]2(O)CC#N` , readout=relative cell viability) returns 103

----------
relative cell viability values for the molecules below.
# Test system: HL-1
# RUN DESCRIPTION: relative cell viability (CellTiter-Glo) vs DMSO control (% of DMSO control); higher = more viable cells
# CONDITION LABEL: oxygen condition: normoxia 72 h; 1000 nM
Answer with a bare number; do not write a unit.

Lab note: `COC(=O)[C@H](Cc1ccccc1)NC(=O)[C@@H](N)CC(=O)O` gave relative cell viability of 100

Reported relative cell viability for `CCCCC(=O)N(Cc1ccc(-c2ccccc2-c2nnn[nH]2)cc1)[C@H](C(=O)O)C(C)C` was 93.8

What the record says about `COc1c2ccoc2cc2oc(=O)ccc12` : relative cell viability is 109

// field: relative cell viability; key: CCOC(=O)OC(C)OC1=C(C(=O)Nc2ccccn2)N(C)S(=O)(=O)c2ccccc21 (stereo not given) ; value = 102

Per the records, this molecule ( CCOc1ccc2nc(S(N)(=O)=O)sc2c1 [Ethoxzolamide] ) has relative cell viability equal to 102

----------
# Test system: HL-1
# RUN DESCRIPTION: relative cell viability (CellTiter-Glo) vs DMSO control (% of DMSO control); higher = more viable cells
# CONDITION LABEL: oxygen condition: hypoxia 48 h (1% O2) + reoxygenation 24 h; 1000 nM
Where a name gives a salt, the structure may show the parent alone.
relative cell viability strictly under 100 means Yes; at 100 or over means No.

Consider the following illustrative entries.
COMPOUND	ASSAY SYSTEM	LABEL VALUE
NC(=O)c1cn(Cc2c(F)cccc2F)nn1 [Rufinamide]	HL-1	No
CC(C)n1c(/C=C/C(O)CC(O)CC(=O)O)c(-c2ccc(F)cc2)c2ccccc21 (configuration not stated) [Fluvastatin sodium]	HL-1	Yes
S=c1[nH]cnc2nc[nH]c12	HL-1	No
CC1=NN(c2ccccc2)C(=O)C1	HL-1	Yes
Nc1cccc2c1CN(C1CCC(=O)NC1=O)C2=O (configuration not stated) [Lenalidomide]	HL-1	No

Query string: In plain terms, does `COC(=O)C1=C(C)NC(C)=C(C(=O)OC)C1c1ccccc1[N+](=O)[O-]` come in under 100 for relative cell viability?
Result string: Yes

Query string: Here's an entry: `OC[C@@H](O)[C@@H](O)[C@H](O)[C@H](O)CO` . Is its relative cell viability below 100?
Result string: No

Query string: Strictly below 100 in relative cell viability? COCCc1ccc(OCC(O)CNC(C)C)cc1 (configuration not stated) [Metoprolol tartrate]
Result string: No

Query string: Confirm or reject: relative cell viability of CCN(CC)CCOc1ccc(C(=C(Cl)c2ccccc2)c2ccccc2)cc1 [Clomifene citrate] lies strictly below 100
Result string: No
